- TARGET UNDER TEST: furin, P09958;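 also: purified furin at 1:10 enzyme:substrate in 50 mM HEPES pH 7.5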
- Sequence (P09958 whole entry): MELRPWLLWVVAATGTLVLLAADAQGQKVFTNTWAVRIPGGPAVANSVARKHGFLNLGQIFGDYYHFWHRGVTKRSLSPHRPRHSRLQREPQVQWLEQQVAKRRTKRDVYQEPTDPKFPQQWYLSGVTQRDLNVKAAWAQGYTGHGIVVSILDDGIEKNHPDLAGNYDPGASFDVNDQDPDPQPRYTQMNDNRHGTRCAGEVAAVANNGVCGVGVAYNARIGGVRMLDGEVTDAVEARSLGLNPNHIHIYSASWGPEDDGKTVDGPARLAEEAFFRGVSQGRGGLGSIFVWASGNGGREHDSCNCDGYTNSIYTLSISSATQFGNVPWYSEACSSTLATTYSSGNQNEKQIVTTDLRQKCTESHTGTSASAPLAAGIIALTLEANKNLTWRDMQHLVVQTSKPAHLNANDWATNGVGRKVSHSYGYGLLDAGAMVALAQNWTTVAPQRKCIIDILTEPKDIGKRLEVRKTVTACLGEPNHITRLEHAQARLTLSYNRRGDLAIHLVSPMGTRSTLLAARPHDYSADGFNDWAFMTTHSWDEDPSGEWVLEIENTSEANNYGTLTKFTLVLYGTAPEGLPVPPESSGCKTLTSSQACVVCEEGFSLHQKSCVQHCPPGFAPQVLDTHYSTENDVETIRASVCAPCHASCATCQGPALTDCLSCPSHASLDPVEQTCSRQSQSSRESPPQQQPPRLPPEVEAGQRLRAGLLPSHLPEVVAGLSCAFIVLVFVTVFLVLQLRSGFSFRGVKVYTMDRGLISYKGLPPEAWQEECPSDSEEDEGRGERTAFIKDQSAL
- ASSAY DETAILS: furin cleavage Z-score vs untreated control; higher = more cleavage, active = 3.5 or more, inactive = 1 or less, 8 variable residues between constant flanks
- CONDITION: 7.5 min
The other results are listed elsewhere or left out. The hit rate among all sequences tested is not known here.
Binary classification by furin cleavage Z-score, with 0.9 as an inclusive lower bound for criterion met; all other cases are criterion not met.

Examples from the recorded data:
>>> class_assignment("CANKRRGGTAAGNASASA [WN5]")
"criterion not met"
>>> class_assignment("CARVVRELLQAGNASASA [FS-1805]")
"criterion met"
>>> class_assignment("CAVVLLLFAGAGNASASA [HC347]")
"criterion not met"
>>> class_assignment("CAMLYRHKKSAGNASASA [FS-829]")
"criterion met"
>>> class_assignment("CAEKARKGKSAGNASASA [FS-413]")
"criterion not met"

Query: Does CARKRRTGFGAGNASASA [FS-2978] have a reported furin cleavage Z-score of at least 0.9?
Reply: criterion not met

Query: Is reported furin cleavage Z-score greater than or equal to 0.9 here: CASFARIKKWAGNASASA [FS-717]
Reply: criterion not met

Query: Does the sequence CALKARRKKSAGNASASA [FS-176] have recorded furin cleavage Z-score that is 0.9 or more?
Reply: criterion met

Query: Check if furin cleavage Z-score >= 0.9 (inclusive). Item: CARLYREKKSAGNASASA [FS-1651]
Reply: criterion not met

Query: Has CAEPPCHRPSAGNASASA [HC2339] a recorded furin cleavage Z-score greater than or equal to 0.9?
Reply: criterion not met

Query: furin cleavage Z-score >= 0.9 for CARKRRGGPSAGNASASA [FS-2564] ?
Reply: criterion met

Query: Decide: furin cleavage Z-score of CASTLCSAHLAGNASASA [HC2505] >= 0.9?
Reply: criterion not met

Query: Test whether the sequence CARKHPDATYAGNASASA [HC454] records furin cleavage Z-score of 0.9 or higher.
Reply: criterion not met

Query: Could you tell me if the measured furin cleavage Z-score of CARAARSLLQAGNASASA [FS-1679] reaches 0.9 or more?
Reply: criterion met
